- Tested on: SW-620 colon
- MEASUREMENT_DESCRIPTION: NCI tumour cell line growth inhibition, 48 h
QUANTITY_KIND: TGI

- COMPOUND: "CNCCCNc1c2cc(OC)ccc2nc2cccc([N+](=O)[O-])c12"
  TGI: "0.517 µM"
- COMPOUND: "COc1cc(C(=O)C(CO)Oc2ccccc2OC)ccc1O (stereo not drawn)"
  TGI: "> 100 µM"
- COMPOUND: "CC(=O)OCC1OC(NC(=S)CCSc2nc3ccccc3c(=O)n2-c2ccccc2)C(OC(C)=O)C(OC(C)=O)C1OC(C)=O (stereo not drawn)"
  TGI: "> 100 µM"
- COMPOUND: "C#CC[N+](CCO)(CCO)CCCCCCCCCCCCCCCCCC"
  TGI: "34.9 µM"
- COMPOUND: "COC(=O)c1sc(=O)n(-c2ccccc2)c1SCc1ccccc1"
  TGI: "> 100 µM"

Incoming: Entry CCP(=S)(CC)CCl needs its TGI filled in; supply it.
Outgoing: > 100 µM

Incoming: Entry CCC(C)NC1=C(NC(C)=O)C(=O)c2ccccc2C1=O (stereo not drawn) needs its TGI filled in; supply it.
Outgoing: > 75 µM

Incoming: Entry CSc1nn2c(-c3ccc4ccccc4c3)ccnc2c1C#N needs its TGI filled in; supply it.
Outgoing: > 100 µM

Incoming: Entry CC[N+](C)(CC)CCNC(=O)C(O)(c1ccccc1)c1ccccc1 needs its TGI filled in; supply it.
Outgoing: > 100 µM

Incoming: Entry CC(=O)c1c(-c2ccco2)c(C#N)c(=S)n(C2OC(CO)C(O)C(O)C2O)c1-c1ccccc1 (stereo not drawn) needs its TGI filled in; supply it.
Outgoing: > 100 µM

Incoming: Entry CC(C)OP(=O)(CCCCCCCCC/C=C/c1ccc2c(c1)OCCOCCOCCOCCO2)OC(C)C needs its TGI filled in; supply it.
Outgoing: 14.7 µM

Incoming: Entry COc1cc(/C=C/c2cccnc2)cc(OC)c1OC needs its TGI filled in; supply it.
Outgoing: > 100 µM

Incoming: Entry Nc1ccccc1C(=O)CCc1c[nH]c2ccccc12 needs its TGI filled in; supply it.
Outgoing: > 100 µM

Incoming: Entry CNc1cc(N)ccc1C(=O)N1CCC[C@H]1CO needs its TGI filled in; supply it.
Outgoing: > 100 µM

Incoming: Entry COc1ccc(N(CC(=O)O)S(=O)(=O)c2ccccc2)cc1 needs its TGI filled in; supply it.
Outgoing: > 100 µM
